# targetOrSystem: Rlig1-AMP (Homo sapiens, UniProt Q8N999)
# Construct: made in house; host or cells: E. coli BL21 (DE3), pET15b-Rlig1
# Sequence (Q8N999 whole entry): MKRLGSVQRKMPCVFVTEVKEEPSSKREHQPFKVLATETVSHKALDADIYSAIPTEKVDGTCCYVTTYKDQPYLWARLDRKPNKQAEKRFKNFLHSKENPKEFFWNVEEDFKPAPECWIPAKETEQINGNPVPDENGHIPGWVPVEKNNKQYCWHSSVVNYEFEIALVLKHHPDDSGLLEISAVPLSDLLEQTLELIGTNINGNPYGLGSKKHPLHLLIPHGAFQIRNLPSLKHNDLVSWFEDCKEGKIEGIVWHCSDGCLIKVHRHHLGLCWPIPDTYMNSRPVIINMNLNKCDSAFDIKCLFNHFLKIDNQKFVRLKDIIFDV
# protocolDescription: FRET-based high-throughput screening of inhibitors for Rlig1-AMP
# Type: biochemical
# statedConditions: sheet HTS hits; difference of raw data w/o and w enzyme
measuredParameter: 1-D Distance

Worked examples follow.
molecule	experimentalResult
O=C1O[C@@H]2[C@@H](O)[C@H](O)[C@@H](CO)O[C@H]2c2c1cc(O)c(O)c2O	1829
Cc1nc2cc(C(=O)N(C)C)cc(O[C@H]3CCOc4cc(F)cc(F)c43)c2[nH]1	1843
C/C(=N\N=C(N)N)c1cc(NC(=O)CCCCCCCCC(=O)Nc2cc(/C(C)=N/N=C(N)N)cc(/C(C)=N/N=C(N)N)c2)cc(/C(C)=N/N=C(N)N)c1.Cl.Cl.Cl.Cl [Semapimod (tetrahydrochloride)]	217
COC(=O)/C=C/c1ccc(O)c(O)c1 [Methyl caffeate]	1343
CC(C)=CCc1cc([C@@H]2CC(=O)c3ccc(O)c(CC=C(C)C)c3O2)ccc1O	1660

1-D Distance recorded for this molecule, `Cc1ccc2c(-c3nc(Nc4cc(CN5C[C@@H](C)N[C@@H](C)C5)cc(C5CC5)c4)ncc3Cl)c[nH]c2c1` , is 834

All figures here come from paper PMC11747885.
